// provenance: patent US20230095569A1

# target entity: human Claudin18.2 (CLDN18.2) (human, UniProt P56856 1-261)
# run description: cell-based or functional assay
assay endpoint: Max tumor cell killing (% of control), ADCC

binder	result
chAb25 (antibody, V domains shown) VH: EAQLQQSGPELVKPGASVKIFCKASGYTFTDYYINWVKQSHGKSLEWIGDINPNNGGTTYNQKFKGKATLTVDKSSSTASMELRRLTSEDSSVYYCARRDAMDYWGQGTSVTVSS VL: DIVMTQSQKFMSTTVGDRVSITCTASQNVGPAVAWYQQKPGQSPKLLIYSASRRFTGVPDRFTGSGSGTVFTLTINNVQSEDLADYFCQQYISYPLTFGAGTKLELK	76.8 % of control
IMAB362 (Zolbetuximab) (antibody, V domains shown) VH: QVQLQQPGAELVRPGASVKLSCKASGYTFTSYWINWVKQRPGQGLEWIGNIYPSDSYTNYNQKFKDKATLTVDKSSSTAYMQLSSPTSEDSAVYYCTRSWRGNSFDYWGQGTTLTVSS VL: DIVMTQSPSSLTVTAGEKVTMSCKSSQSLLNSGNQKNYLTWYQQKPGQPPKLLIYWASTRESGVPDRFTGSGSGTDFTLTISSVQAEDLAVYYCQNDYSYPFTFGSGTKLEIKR	30.7 % of control
chAb30 (antibody, V domains shown) VH: QVQLKESGPGLVAPSQSLSITCTVSGFSLTKFGVNWVRQPPGKGLEWLGAIWGDGSTNYHSALISRLSINKDNSKSQVFLKLSSLQNVDTATYYCAKSGYGNAMDYWGHGTSVTVSS VL: DIVMTQSPSSLTVTTGEKVTLNCKSSQSLLNSGNLKNYLTWYQQRPGQPPKLLIYWASTRESGVPYRFTGSGSGTDFTLTISNVQAEDLAIYYCQNDYFFPFTFGSGTKLEIK	80.2 % of control
